# PROTOCOL_DETAILS: Solubility of 4-androstene-3,17-dione (saturated solution)
# Type: physicochemical
# CONDITION_DESCRIPTION: in water
OBSERVABLE: solubility

Given the compound C[C@]12CCC(=O)C=C1CC[C@@H]1[C@@H]2CC[C@]2(C)C(=O)CC[C@@H]12 , what is its reported solubility?
~50 µg/mL

Measured values drawn from patent US8592178B2 for this set.
